Data provenance is ChEMBL document CHEMBL1127803.

Target: Mu-type opioid receptor (Cavia porcellus, UniProt P97266)
Sequence (P97266 whole entry): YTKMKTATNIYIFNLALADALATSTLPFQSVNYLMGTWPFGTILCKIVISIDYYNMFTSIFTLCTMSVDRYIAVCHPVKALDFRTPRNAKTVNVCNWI
Assay: Tested for agonist activity against mu opioid receptor in guinea pig ileum
ASSAY READOUT: pIC50
For clarity, pIC50 is expressed as the negative log10 of concentration in mol/L.

[
  {
    "COMPOUND": "CC(C)[C@H](NC(=O)[C@H](CCC(=O)O)NC(=O)[C@H](Cc1ccccc1)NC(=O)[C@@H](C)NC(=O)[C@@H](N)Cc1ccc(O)cc1)C(=O)N[C@H](C(=O)NCC(=O)O)C(C)C",
    "pIC50": 4.82
  },
  {
    "COMPOUND": "C=CCN1C[C@@H](C)N(C(c2ccc(C(=O)N(CC)CC)cc2)c2cccc(OC)c2)C[C@@H]1C (single isomer, unassigned)",
    "pIC50": 5.82
  },
  {
    "COMPOUND": "C=CCN1CC(C)N(C(c2ccc(C(=O)N(CC)CC)cc2)c2cccc(O)c2)CC1C (racemic)",
    "pIC50": 6.84
  }
]

Turning now to a further compound:
Give me measured pIC50, please, for this compound: "C=CCN1C[C@H](C)N([C@@H](c2ccc(C(=O)N(CC)CC)cc2)c2cccc(OC)c2)C[C@H]1C"
5.26

---

Biological target: Mu-type opioid receptor (Rattus norvegicus, UniProt P33535)
Sequence (P33535 whole entry): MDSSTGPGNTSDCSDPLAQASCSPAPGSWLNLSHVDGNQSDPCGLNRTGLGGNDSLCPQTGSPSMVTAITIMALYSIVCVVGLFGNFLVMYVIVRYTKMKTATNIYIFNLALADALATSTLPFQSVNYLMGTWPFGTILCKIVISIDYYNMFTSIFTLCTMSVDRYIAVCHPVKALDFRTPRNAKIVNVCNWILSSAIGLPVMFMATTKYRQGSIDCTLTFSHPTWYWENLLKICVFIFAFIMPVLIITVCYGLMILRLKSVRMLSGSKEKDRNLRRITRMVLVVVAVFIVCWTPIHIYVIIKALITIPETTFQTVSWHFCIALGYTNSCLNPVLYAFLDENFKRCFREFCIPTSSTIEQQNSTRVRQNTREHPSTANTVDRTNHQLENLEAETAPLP
Assay: Evaluated for inhibition of [3H]DAMGO binding from mu receptor in rat brain membranes
ASSAY READOUT: pIC50
Notebook: values listed as pIC50 are -log10 of the concentration (mol/L).

[
  {
    "COMPOUND": "C=CCN1C[C@@H](C)N(C(c2ccc(C(=O)N(CC)CC)cc2)c2cccc(OC)c2)C[C@@H]1C (single isomer, unassigned)",
    "ASSAY TARGET": "Mu-type opioid receptor (Rattus norvegicus, UniProt P33535)",
    "pIC50": 5.04
  },
  {
    "COMPOUND": "C=CCN1C[C@H](C)N([C@H](c2ccc(C(=O)N(CC)CC)cc2)c2cccc(OC)c2)C[C@H]1C",
    "ASSAY TARGET": "Mu-type opioid receptor (Rattus norvegicus, UniProt P33535)",
    "pIC50": 5.24
  },
  {
    "COMPOUND": "C=CCN1C[C@H](C)N([C@@H](c2ccc(C(=O)N(CC)CC)cc2)c2cccc(OC)c2)C[C@H]1C",
    "ASSAY TARGET": "Mu-type opioid receptor (Rattus norvegicus, UniProt P33535)",
    "pIC50": 5.61
  }
]

Would you kindly look at the next entry?
// fetch pIC50 given entry C=CCN1CC(C)N([C@H](c2ccc(C(=O)N(CC)CC)cc2)c2cccc(OC)c2)CC1C (single isomer, unassigned)
5.03

---

Target: Delta-type opioid receptor (Mus musculus)
Sequence (P32300 whole entry): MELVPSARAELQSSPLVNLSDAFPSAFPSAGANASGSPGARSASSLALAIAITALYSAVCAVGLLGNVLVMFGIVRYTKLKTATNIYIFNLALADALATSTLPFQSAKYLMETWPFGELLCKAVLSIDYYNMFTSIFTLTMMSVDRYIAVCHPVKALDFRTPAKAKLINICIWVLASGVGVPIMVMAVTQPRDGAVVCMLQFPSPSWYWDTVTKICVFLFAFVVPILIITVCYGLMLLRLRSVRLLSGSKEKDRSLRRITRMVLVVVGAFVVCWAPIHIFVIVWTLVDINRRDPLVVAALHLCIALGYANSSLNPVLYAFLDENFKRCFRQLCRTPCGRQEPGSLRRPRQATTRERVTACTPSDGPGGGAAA
Experiment: Tested for inhibition of binding of [3H]DADLE to mouse brain membranes depleted of mu binding sites by pretreatment with irreversible ligand BIT for delta opioid receptor
Parameters: species or system Membrane
ASSAY READOUT: IC50 (nM)
Report the figure in nM without appending any unit label.

// below: answered compounds
[
  {
    "COMPOUND": "C=CCN1C[C@@H](C)N([C@H](c2ccc(C(=O)N(CC)CC)cc2)c2cccc(O)c2)C[C@@H]1C",
    "ASSAY TARGET": "Delta-type opioid receptor (Mus musculus)",
    "IC50 / nM": 9.58
  },
  {
    "COMPOUND": "C=CCN1C[C@@H](C)N([C@@H](c2ccc(C(=O)N(CC)CC)cc2)c2cccc(O)c2)C[C@@H]1C",
    "ASSAY TARGET": "Delta-type opioid receptor (Mus musculus)",
    "IC50 / nM": 0.49
  },
  {
    "COMPOUND": "C=CCN1CC(C)N(C(c2ccc(C(=O)N(CC)CC)cc2)c2cccc(O)c2)CC1C (racemic)",
    "ASSAY TARGET": "Delta-type opioid receptor (Mus musculus)",
    "IC50 / nM": 0.92
  },
  {
    "COMPOUND": "C=CCN1C[C@H](C)N(C(c2ccc(C(=O)N(CC)CC)cc2)c2cccc(O)c2)C[C@H]1C (single isomer, unassigned; (+)-10)",
    "ASSAY TARGET": "Delta-type opioid receptor (Mus musculus)",
    "IC50 / nM": 5.96
  }
]

Now examine the next entry.
Consider the compound C=CCN1C[C@H](C)N(C(c2ccc(C(=O)N(CC)CC)cc2)c2cccc(O)c2)C[C@H]1C (single isomer, unassigned; (+)-1) . State its measured IC50.
0.31
